# Measurement Description: Pharmacokinetic and tissue distribution in Lewis rats
# Assay type: in vivo
# Test Settings: male, rat, lung / plasma, oral, 5 mg/kg, gavage 5 mpk, read-out: Ratio in lung blood
Experimental Readout: Kp

Ask | Name the reported Kp value associated with the molecule O=C(Nc1ccc(Cl)c(S(=O)(=O)[C@H]2CCCNC2)c1O)NC1CCCc2cc(C(F)(F)F)oc21 (single isomer, unassigned) [WX030B]
Reply | 2.17

Ask | Request: Cc1c(F)cccc1NC(=O)Nc1ccc(Cl)c(S(=O)(=O)[C@H]2CCCNC2)c1O [Danirixin, danirixin, reference compound]
Reply | 1.57

----------
# Measurement Description: Pharmacokinetic evaluation in C57BL/6 mice
# Format: in vivo
# Test Settings: male, mouse, plasma, intravenous 1 mpk / gavage 5 mpk study, read-out: Half-life T1/2 (converted)
Experimental Readout: half-life (h)
Give just the number in h; leave the unit off.

Ask | Name the reported half-life value associated with the compound O=C(Nc1ccc(Cl)c(S(=O)(=O)[C@H]2CCCNC2)c1O)NC1CCCc2ccoc21 (single isomer, unassigned) [WX013A]
Reply | 2.21
